Tested on: α7 integrin promoter
EXPERIMENTAL DETAILS: muscle cell-based assay: α7βgal+/− myoblasts/myotubes, LacZ reporter, β-galactosidase cleavage of FDG
Parameters: species or system mouse
EXPERIMENTAL SETUP: curve fit, activity at zero concentration
MEASURED METRIC: Fit Zero Activity [%] (%)
Number in %, nothing else.

| MOLECULE | MEASURED METRIC | OBSERVED MEASUREMENT |
| --- | --- | --- |
| O=C(Nc1ccc(S(=O)(=O)Nc2nccs2)cc1)c1ccccc1OC(F)F | Fit Zero Activity [%] | −19.2861 |
| CSc1ncccc1C(=O)OCC(=O)c1cc(C)n(C)c1C | Fit Zero Activity [%] | −22.5632 |
| CC1=C(C#N)C(=O)N(C)C(=O)/C1=C\NNc1ccc(F)cc1 | Fit Zero Activity [%] | −47.2995 |

Reported Fit Zero Activity [%] of `Nc1nccc(-c2ccc(-n3cnc4ccccc43)cc2)n1` : 2.4789

Reported Fit Zero Activity [%] of COC(=O)C1=NNC2(C)C(=O)N(c3ccc(C)cc3)C(=O)C12 (centres unmarked) : 0.9153

====

System: α7 integrin promoter
EXPERIMENTAL DETAILS: muscle cell-based assay: α7βgal+/− myoblasts/myotubes, LacZ reporter, β-galactosidase cleavage of FDG
Design: species or system mouse
EXPERIMENTAL SETUP: Myotubes; compound at 1 uM
Binary classification by Results in a α7+/− β-galactosidase assay, Myotubes, 1 uM, with 0.1 as an inclusive lower bound for yes; all other cases are no.

| MOLECULE | LABEL CLASS |
| --- | --- |
| CCOC(=O)c1sc(=N)n(-c2ccc(OC)cc2)c1C [drawing 503] | no |
| CCc1nc(/C=C2\C(=O)Nc3ccccc32)c[nH]1 [drawing 394] | yes |
| Nc1ncnc(NCc2ccccc2)c1[N+](=O)[O-] [drawing 486] | no |
| O=c1[nH]c(CN2CCCCC2)cc2c1C1(CCCCC1)Cc1ccccc1-2 [drawing 357] | yes |
| c1ccc(-c2nn[nH]n2)nc1 [drawing 408] | no |

stdin: State whether the measured Results in a α7+/− β-galactosidase assay, Myotubes, 1 uM reaches 0.1, counting equality as reaching it, for N#CC1=C2SCN(c3ccccc3)CN2C(=O)CC1c1cccs1 (stereo not shown) [drawing 360]
stdout: yes

stdin: State whether the measured Results in a α7+/− β-galactosidase assay, Myotubes, 1 uM reaches 0.1, counting equality as reaching it, for Cc1ccccc1NC(=O)c1ccc2c(O)c(Sc3ccccc3)c(=O)[nH]c2c1 [drawing 426]
stdout: no

stdin: State whether the measured Results in a α7+/− β-galactosidase assay, Myotubes, 1 uM reaches 0.1, counting equality as reaching it, for O=S(=O)(N/C(=N/C1CCCCC1)c1ccccc1F)c1ccccc1 [drawing 334]
stdout: no

stdin: State whether the measured Results in a α7+/− β-galactosidase assay, Myotubes, 1 uM reaches 0.1, counting equality as reaching it, for COC(=O)c1ccc(/N=N/c2ccccc2)cc1 [drawing 405]
stdout: yes

stdin: State whether the measured Results in a α7+/− β-galactosidase assay, Myotubes, 1 uM reaches 0.1, counting equality as reaching it, for O=C1Nc2ccccc2/C1=C\c1ccnc2ccccc12 [drawing 318]
stdout: no

====

Tested on: α7 integrin promoter
EXPERIMENTAL DETAILS: muscle cell-based assay: α7βgal+/− myoblasts/myotubes, LacZ reporter, β-galactosidase cleavage of FDG
Set-up: species or system mouse
EXPERIMENTAL SETUP: Table 12; curve fit
MEASURED METRIC: Fit HillSlope
Number, no unit, nothing else.

| COMPOUND | Fit HillSlope |
| --- | --- |
| COc1ccc(C(=O)N/C(=C/c2cccnc2)C(=O)N2CCN(C)CC2)cc1OC | 1.6259 |
| CC(NC(=O)c1cn(C)c2ccc(S(=O)(=O)N3CCCC3)cc2c1=O)c1ccccc1 (stereo not shown) | 2.5334 |

Reported Fit HillSlope of `COc1cc2c(cc1NC(=O)Cc1ccc(C)cc1)oc1ccccc12` : 2.5334

Reported Fit HillSlope of `Cc1ccc(C2=C(CC(=O)O)C(=O)CC2)cc1` : 0.8

Reported Fit HillSlope of `CNc1cc([N+](=O)[O-])ccc1OCc1ccccc1` : 1.3437

Reported Fit HillSlope of `CCOc1ccccc1NC(=O)c1cccc2c1C(=O)N(C1CCCCC1)C2` : 1.6259

====

System: α7 integrin promoter
EXPERIMENTAL DETAILS: muscle cell-based assay: α7βgal+/− myoblasts/myotubes, LacZ reporter, β-galactosidase cleavage of FDG
Set-up: species or system mouse
EXPERIMENTAL SETUP: Table 12; curve fit
Each entry below lists one item and its recorded Fit HillSlope value.
Number, no unit, nothing else.

Solved entries (count: 3):
| MOLECULE | Fit HillSlope |
| --- | --- |
| Cc1ccc(NP(=O)(Nc2ccc(C)cc2)Nc2ccc(C)cc2)cc1 | 2.8473 |
| CN(C)S(=O)(=O)c1ccc(C(=O)Nc2nc3ccccc3[nH]2)cc1 | 1.5579 |
| CCOC(=O)C1CCCN(C(=O)CNS(=O)(=O)c2ccc(Br)s2)C1 (stereo not shown) | 1.1 |

Would you kindly look at the next entry?
Here O=C(NCCc1ccccc1)C1CCC(=O)N1C1CCCC1 (stereo not shown) was tested on α7 integrin promoter, and its Fit HillSlope came to 3.6772

====

Test system: α7 integrin promoter
EXPERIMENTAL DETAILS: muscle cell-based assay: α7βgal+/− myoblasts/myotubes, LacZ reporter, β-galactosidase cleavage of FDG
Parameters: species or system mouse
EXPERIMENTAL SETUP: curve class number, key not given
Each entry below lists one item and its recorded Fit Curve Class value.
Number, no unit, nothing else.

Solved entries (count: 6):
| COMPOUND | OBSERVED MEASUREMENT |
| --- | --- |
| COc1ccc(O)c(/C=N/NC(=O)c2cc(O)nc3ccccc23)c1 | 2.1 |
| COc1cc(Cl)cc(CN2CCC(CCC(=O)NC3CC3)CC2)c1OC | 2.1 |
| CC1(C)Cc2c(cnn2-c2cccc(F)c2)C(NC(=O)CCc2cnccn2)C1 (stereo not drawn) | 2.1 |
| Cc1cc(C)nc(NC(=O)c2ccc(Cl)cc2Cl)n1 | 2.2 |
| COc1cccc(NC(=O)c2ccc3c(c2)CCCC3)c1 | 2.1 |
| Cc1ccc(NC(=O)COc2ccccc2CNC(C)(C)CC(C)(C)C)cc1 | 2.1 |

Reported Fit Curve Class of `CC(C)c1ccc(NC(=O)CN2C(=O)c3ccccc3S2(=O)=O)cc1` : 2.2

Reported Fit Curve Class of COc1cc(NC(=O)C2C3C=CC(C3)C2C(=O)O)ccc1NC(=O)c1ccccc1 (stereo not drawn) : 2.1

Reported Fit Curve Class of `O=C(NCCc1ccc(F)cc1)N[C@@H](Cc1ccccc1)C(=O)O` : 2.1

====

Test system: α7 integrin promoter
EXPERIMENTAL DETAILS: muscle cell-based assay: α7βgal+/− myoblasts/myotubes, LacZ reporter, β-galactosidase cleavage of FDG
Design: species or system mouse
EXPERIMENTAL SETUP: Myotubes; compound at 1 uM
Each entry below lists one item and its recorded Results in a α7+/− β-galactosidase assay, Myotubes, 1 uM value.
Number, no unit, nothing else.

| COMPOUND | OBSERVED MEASUREMENT |
| --- | --- |
| CC(C)(C)Nc1nc(-c2ccc3c(c2)CCN3C(=O)C2CC2)cs1 [drawing 345] | 0.1611 |
| CCN(CC)CCNC(=O)c1c(C)[nH]c(CC2C(=O)Nc3ccc(F)cc32)c1C (stereo not drawn) [drawing 507] | −0.08032 |

Would you kindly look at the next entry?
Reported Results in a α7+/− β-galactosidase assay, Myotubes, 1 uM of Cc1[nH]c2ccc(F)cc2c1CCN(Cc1ccco1)/C(S)=N/C(C)(C)C [drawing 431] : −0.1703

====

Tested on: α7 integrin promoter
EXPERIMENTAL DETAILS: muscle cell-based assay: α7βgal+/− myoblasts/myotubes, LacZ reporter, β-galactosidase cleavage of FDG
Design: species or system mouse
EXPERIMENTAL SETUP: Table 12; curve fit
MEASURED METRIC: Fit HillSlope
Number, no unit, nothing else.

Solved entries (count: 4):
| COMPOUND | TESTED SYSTEM | Fit HillSlope |
| --- | --- | --- |
| COc1ccc(-n2c(C)c(C(C)=O)c3cc(OC(C)=O)ccc32)cc1 | α7 integrin promoter | 3.5722 |
| COc1ccc(N2CCCC2)c(NC(=O)c2ccc([N+](=O)[O-])o2)c1 | α7 integrin promoter | 1.01 |
| Cc1ccc(CNc2ncnc(N)c2[N+](=O)[O-])cc1 | α7 integrin promoter | 0.8 |
| Cc1cc(OCC(=O)NC(C)C)ccc1Cl | α7 integrin promoter | 2.5334 |

Reported Fit HillSlope of `COC(=O)C(=O)C/C(=N/Nc1ncnc2ccccc12)c1ccc(Cl)cc1` : 4.9549

Reported Fit HillSlope of `COc1ccccc1CNc1cc(C)ccn1` : 1.9673

Reported Fit HillSlope of `CC1(C)CC(O)=C/C(=N\c2ccc(C(=O)O)c(O)c2)C1` : 2.1211

Reported Fit HillSlope of `COc1ccccc1CNS(=O)(=O)c1ccc(Cl)s1` : 1.8265

Reported Fit HillSlope of CC1CCCCN1c1ncnc(N)c1[N+](=O)[O-] (stereo not shown) : 1.4781

Reported Fit HillSlope of `O=C(O)c1cc(/N=C/c2c(O)oc3ccccc3c2=O)ccc1O` : 1.7137

Reported Fit HillSlope of C/N=C(\S)N1CCC(NC(=O)C(Cc2ccc(F)cc2)NC(C)=O)CC1 (stereo not shown) : 1.1341

Reported Fit HillSlope of `CS(=O)(=O)Cc1cccc(C(=O)NN(c2ccccc2)c2ccccc2)c1` : 4.5045

Reported Fit HillSlope of `Fc1ccc(-c2ccnn2-c2ccccc2)cc1` : 1.4781

Reported Fit HillSlope of `CC(C)(CC(=O)O)CC(=O)N1CCCN(c2nccc(C(F)(F)F)n2)CC1` : 1.5095

Reported Fit HillSlope of `CCCCNc1nnc(SCC(=O)c2c(N)n(CCC)c(=O)[nH]c2=O)s1` : 1.3987

Reported Fit HillSlope of `Cc1cccn2c(=O)c3cc(C(=O)NC4CCCCC4)n(C)c3nc12` : 4.5045

Reported Fit HillSlope of `CS(=O)(=O)c1ccc(Cl)c(NC(=O)CSc2nncn2-c2ccccc2)c1` : 4.9549

Reported Fit HillSlope of `COCCn1c(=N)c(S(=O)(=O)c2ccc(Br)cc2)cc2c(=O)n3ccccc3nc21` : 1.9887

Reported Fit HillSlope of CCOc1ccc(S(=O)(=O)NCCC(=O)NCC(c2cccs2)N2CCOCC2)cc1 (stereo not shown) : 2.3332
